Where do the numbers come from? From paper PMC6925144.

- assayed-target: NAD-dependent deacetylase Sirtuin 1 (human, UniProt Q96EB6)
- Sequence (Q96EB6 2-747 limits assumed): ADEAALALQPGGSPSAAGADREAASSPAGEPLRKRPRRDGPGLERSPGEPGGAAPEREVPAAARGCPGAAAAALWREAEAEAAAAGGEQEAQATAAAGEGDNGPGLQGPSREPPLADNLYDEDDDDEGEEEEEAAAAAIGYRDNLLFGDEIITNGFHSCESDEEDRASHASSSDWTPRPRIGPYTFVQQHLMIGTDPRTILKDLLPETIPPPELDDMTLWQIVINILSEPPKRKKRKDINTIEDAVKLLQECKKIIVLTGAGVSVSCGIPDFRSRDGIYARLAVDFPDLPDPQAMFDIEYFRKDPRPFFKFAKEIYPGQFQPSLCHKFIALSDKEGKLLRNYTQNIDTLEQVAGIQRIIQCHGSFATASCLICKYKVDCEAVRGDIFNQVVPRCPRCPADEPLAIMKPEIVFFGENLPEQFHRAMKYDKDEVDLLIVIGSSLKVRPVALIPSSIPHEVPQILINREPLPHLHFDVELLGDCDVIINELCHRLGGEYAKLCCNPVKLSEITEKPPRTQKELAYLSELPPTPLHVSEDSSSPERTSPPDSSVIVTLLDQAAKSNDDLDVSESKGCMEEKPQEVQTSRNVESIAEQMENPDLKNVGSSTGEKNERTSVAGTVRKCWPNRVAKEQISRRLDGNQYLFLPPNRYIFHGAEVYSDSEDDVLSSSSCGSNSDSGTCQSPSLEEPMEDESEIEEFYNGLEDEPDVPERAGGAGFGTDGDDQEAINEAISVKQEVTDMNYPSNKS
- method-notes: primary screen, delta tm
- Set-up: single well (n = 1)
- condition-parameters: 10 µM
The full ranking holds about 3,200 compounds; the median of “TSA(without NAD+) / Primary screening (TSA) / delta Tm (K)” is about -0.07, and the highest 2% start at about 0.37. The entries come from a sample that favours the highest values as a whole.
Response key: 1 means TSA(without NAD+) / Primary screening (TSA) / delta Tm (K) >= 0.07 K; 0 means TSA(without NAD+) / Primary screening (TSA) / delta Tm (K) < 0.07 K.

CCOc1cc(/C=N/NC(=O)c2cc3c(s2)CCCC3)ccc1OCC(=O)Nc1cccc(C(F)(F)F)c1 = 1
O=C1/C(=C/c2cnn(-c3ccccc3)c2)Oc2cc(O)ccc21 = 1
Cn1cc(C(=O)Nc2cccc(C3(C)NC(=O)NC3=O)c2)c2ccccc21 (stereo not shown) = 0
Cc1ccc(N(C)S(=O)(=O)c2cccc(C(=O)N(C)Cc3ccccc3Cl)c2)cc1 = 0
Cc1ccc(C23CC4CC(CC(C(=O)OC(C)C(=O)Nc5ccc(S(N)(=O)=O)cc5)(C4)C2)C3)cc1C (stereo not shown) = 1

Would you say COc1ccc(Br)cc1/C=C1/COc2ccccc2C1=O shows TSA(without NAD+) / Primary screening (TSA) / delta Tm (K) at minimum 0.07 K?
0

Would you say COc1ccc(NC(=O)C2=COCCO2)cc1S(=O)(=O)N1CCOCC1 shows TSA(without NAD+) / Primary screening (TSA) / delta Tm (K) at minimum 0.07 K?
0

###

- assayed-target: NAD-dependent deacetylase Sirtuin 1 (human, UniProt Q96EB6)
- method-notes: primary screen, delta tm
- Parameters: single well (n = 1)
- condition-parameters: 10 µM
In all, about 3,200 compounds were measured (“TSA(without NAD+) / Primary screening (TSA) / delta Tm (K)”: median about -0.07, highest 2% from about 0.37 on). The full list was thinned out, with the highest values kept by preference.
reported-metric: TSA(without NAD+) / Primary screening (TSA) / delta Tm (K)
Answers are plain numbers, in K.

c1coc(CNc2ncnc3ccsc23)c1 = 0.05
Cc1[nH]c2ccccc2c1CC(=O)Nc1cccc(-c2noc(=O)[nH]2)c1 = 0.07
NC1=Nc2nc3ccccc3n2C(c2ccc(-c3ccc(C(=O)O)cc3)o2)N1 (centres unmarked) = 1.36
COc1ccc(N(C)S(=O)(=O)c2cccc(C(=O)Nc3ccc(Br)c(C(F)(F)F)c3)c2)cc1 = 0.62
CCCOc1ccc(C(=O)C2=C(O)C(=O)N(CCCN3CCOCC3)C2c2ccccc2F)cc1 (centres unmarked) = -0.27
COc1ccc(N(C)S(=O)(=O)c2cccc(C(=O)Nc3sc4c(c3C(N)=O)CCC(C)C4)c2)cc1 (centres unmarked) = 0.08
CCCCOc1cc(C2NC(N)=Nc3nc4ccccc4n32)ccc1OC (centres unmarked) = -0.17
CC1CCC(NN)CC1 (centres unmarked) = -0.08

Please go through the list and note TSA(without NAD+) / Primary screening (TSA) / delta Tm (K) for each molecule.
1. NC(=O)c1ncn(-c2ccncc2)c1N
2. COc1cc(NC(C)C(=O)Nc2ccc(C(N)=O)cc2)cc(OC)c1OC (centres unmarked)
3. COc1ccc(CNC(=S)NC2CCCCC2)cc1OC

-0.02
-0.18
-0.23

###

- assayed-target: NAD-dependent deacetylase Sirtuin 1 (human)
- method-notes: primary screen, delta tm
- Set-up: single well (n = 1)
- condition-parameters: 10 µM
Whole data set: some 3,200 compounds, median “TSA(without NAD+) / Primary screening (TSA) / delta Tm (K)” near -0.07, cut for the highest 2% near 0.37. The sample as a whole holds a higher share of the highest values than the screen did.
Response key: y means TSA(without NAD+) / Primary screening (TSA) / delta Tm (K) >= -0.03 K; n means TSA(without NAD+) / Primary screening (TSA) / delta Tm (K) < -0.03 K.

Illustrative cases are given below, each with its answer.
O=C1/C(=C/c2cccc(Br)c2)Oc2cc(O)ccc21 = y
O=C1NC(=S)N/C1=C\c1ccccc1OCc1ccc(C(=O)O)cc1 = y
NC(=O)COC(=O)c1ccc(OCC(=O)Nc2cccc(C(F)(F)F)c2)cc1 = y
O=C(COc1ccccc1C(=O)Nc1ccc(S(=O)(=O)Nc2nccs2)cc1)Nc1cccc(C(F)(F)F)c1 = y
CC(=O)N1Cc2ccccc2CC1C(=O)NC1CCOc2ccccc21 (stereo not shown) = n

Would you say COc1ccc(NC(C)c2ccc(S(C)=O)cc2)cn1 (stereo not shown) shows TSA(without NAD+) / Primary screening (TSA) / delta Tm (K) at minimum -0.03 K?
n

Would you say Cc1cccc(-n2ccnc2SCC(=O)Nc2ccc(S(=O)(=O)Nc3nccs3)cc2)c1C shows TSA(without NAD+) / Primary screening (TSA) / delta Tm (K) at minimum -0.03 K?
y

Would you say O=C1NC(=S)N/C1=C/c1ccc(-c2ccccc2F)o1 shows TSA(without NAD+) / Primary screening (TSA) / delta Tm (K) at minimum -0.03 K?
y

Would you say Cc1nc2cc(C(=O)Nc3ccc(NC(=O)N4CCCCCC4)cc3)ccc2n1C shows TSA(without NAD+) / Primary screening (TSA) / delta Tm (K) at minimum -0.03 K?
n

###

- assayed-target: NAD-dependent deacetylase Sirtuin 1 (human, UniProt Q96EB6)
- method-notes: primary screen, delta tm
- Set-up: single well (n = 1)
- condition-parameters: 10 µM
Over roughly 3,200 compounds, “TSA(without NAD+) / Primary screening (TSA) / delta Tm (K)” has its median near -0.07; the highest 2% begin near 0.37. The entries come from a sample that favours the highest values as a whole.
Response key: TRUE means TSA(without NAD+) / Primary screening (TSA) / delta Tm (K) >= 0.1 K; FALSE means TSA(without NAD+) / Primary screening (TSA) / delta Tm (K) < 0.1 K.

Would you say NS(=O)(=O)c1ccc(C(=O)Nc2ccc3c(c2)-c2ccccc2C3)cc1 shows TSA(without NAD+) / Primary screening (TSA) / delta Tm (K) at minimum 0.1 K?
TRUE

Would you say CCCn1nnnc1CN1C(=O)NC(Cc2c[nH]c3ccccc23)C1=O (centres unmarked) shows TSA(without NAD+) / Primary screening (TSA) / delta Tm (K) at minimum 0.1 K?
FALSE

Would you say NC(=O)c1ccc(OCC(=O)NC(=O)NCc2cccs2)cc1 shows TSA(without NAD+) / Primary screening (TSA) / delta Tm (K) at minimum 0.1 K?
FALSE

Would you say Cc1ccc2c(CC(=O)Nc3ccccc3Cc3ccccc3)coc2c1 shows TSA(without NAD+) / Primary screening (TSA) / delta Tm (K) at minimum 0.1 K?
FALSE

Would you say NC(=S)c1ccc(C(=O)NCc2ccnc(OCC(F)(F)F)c2)cc1 shows TSA(without NAD+) / Primary screening (TSA) / delta Tm (K) at minimum 0.1 K?
FALSE

Would you say COc1ccc(-c2nn(-c3ccccc3)cc2CN(CCCCCCN(Cc2cn(-c3ccccc3)nc2-c2ccc(OC)cc2)C(=O)CCC(=O)O)C(=O)CCC(=O)O)cc1 shows TSA(without NAD+) / Primary screening (TSA) / delta Tm (K) at minimum 0.1 K?
TRUE

###

Could you please report measured TSA(without NAD+) / Primary screening (TSA) / delta Tm (K) for the items listed next?
- assayed-target: NAD-dependent deacetylase Sirtuin 1 (human)
- method-notes: primary screen, delta tm
- Design: single well (n = 1)
- condition-parameters: 10 µM
Over roughly 3,200 compounds, “TSA(without NAD+) / Primary screening (TSA) / delta Tm (K)” has its median near -0.07; the highest 2% begin near 0.37. Only a selection was taken, and the highest values are over-represented in it overall.
One number for each entry, in K.

Examples with their reported TSA(without NAD+) / Primary screening (TSA) / delta Tm (K) follow.
O=C(Nc1cccc(-c2nc(C3CC3)no2)c1)c1cccc(NC(=O)C2CCCCC2)c1 = 0.42
Cc1ccc(N(C)S(=O)(=O)c2cccc(C(=O)Nc3ccncc3)c2)cc1 = -0.18
CN(c1cccc(Cl)c1)S(=O)(=O)c1cccc(C(=O)Nc2ccc(C(N)=O)cc2)c1 = 0.08
Cc1ccc(N(C)S(=O)(=O)c2cccc(C(=O)Nc3ccc(Br)c(C)c3)c2)cc1 = 0.48

Please go through the list and note TSA(without NAD+) / Primary screening (TSA) / delta Tm (K) for each compound.
1. CCCCc1ccc(NC(=O)c2cccc(S(=O)(=O)N(C)c3cccc(Cl)c3)c2)cc1
2. Cc1cc2ccccc2n1CC(=O)NCC(Cc1ccccc1)N(C)C (stereo not shown)
3. O=S1(=O)CCC(N2CCN(c3ncnc4c3oc3ccccc34)CC2)C1 (stereo not shown)
4. CC1Cc2ccccc2N1c1ncnc2ccsc12 (stereo not shown)
5. Cc1cc(C)c(NC(=O)CN(C)C(=O)CNC(=O)C(C)(C)C)c(C)c1
6. O=C(NCc1cccc(NC(=O)C2CC2)c1)c1ccc(C(=O)c2ccccc2)cc1

0.58
-0.12
-0.11
0.07
0.02
-0.11
